system: MDA-MB-468 breast; test: NCI tumour cell line growth inhibition, 48 h
quantityName: log10 TGI (log10 of the value in µM)

> print(dat)
                                 smilesentry  numericreadout
 1  O=c1cc(NC2CCN(CCCc3ccccc3)CC2)c2cc(Cl)ccc2o1            1.34
 2  Nc1ccc(-c2nc3ccc(Cc4ccc5nc(-c6ccc(N)cc6)[nH]c5c4)cc3[nH]2)cc1            0.46
 3  COc1ccc(/C=C/C(=O)C(CC2CCC2)C(=O)/C=C/c2ccc(OC)c(OC)c2)cc1OC            0.57
 4  Brc1ccc(-c2n(Cc3ccc4ccccc4c3)c(-c3ccccc3)c(-c3ccccc3)[n+]2Cc2ccc3ccccc3c2)cc1           -0.31
 5  CN(C)CCN1C(=O)c2ccc3c4c(ccc(c24)C1=O)C(=O)N(CCN=C=S)C3=O           -1.00
 6  COc1ccc(CCN2COc3c([C@@H](C)CCC=C(C)C)ccc(C)c3C2)cc1OC            0.47
 7  CN(C)C(=O)[C@H](O)[C@H](Cc1ccccc1)NC(=O)c1cc2cc(Cl)ccc2[nH]1            1.89
 8          O=C1Nc2ccc(F)cc2/C1=C/c1ccc[nH]1            0.18
 9  COC(=O)[C@H]1[C@@H](O)[C@@]2(O)c3c(OC)cc(OC)cc3O[C@@]2(c2ccc(OC)cc2)[C@@H]1c1ccccc1           -0.94
10  COc1cc(/C=C/c2cc(/C=C/c3ccc(O)c(OC)c3)n(C(=O)Nc3ccc(C)cc3C)n2)ccc1O           -0.12
11  COc1ccc(-c2nn(-c3ccc(NC(=O)Nc4cc(C(F)(F)F)cc(C(F)(F)F)c4)cc3)cc2-c2ccncc2)cc1Cl            0.78
12  COc1ccc(/C=N/NC(=O)c2[nH]c3ccc(Br)cc3c2-c2ccccc2)o1            0.53
